meta.source: ChEMBL document CHEMBL1949646

Test system: Pseudomonas aeruginosa
ASSAY REMARKS: Antibacterial activity against Pseudomonas aeruginosa after 24 to 28 hrs by agar diffusion method
Type: functional
I'd appreciate it if you could supply MIC values for the items below.
Give just the number in µg/mL; leave the unit off.

Ask | Lookup: MIC / Pseudomonas aeruginosa / Cc1noc2c1N=C(c1ccccc1O)CC(c1cc(Cc3ccc(O)c(C4CC(c5ccccc5O)=Nc5c(C)noc5C4)c3)ccc1O)C2 (stereo not given)
Reply | 38

Ask | Try CCn1cc(C(=O)O)c(=O)c2ccc(C)nc21 next.
Reply | 30

Ask | Try Cc1noc2c1N=C(c1ccco1)CC(c1cc(Cc3ccc(O)c(C4CC(c5ccco5)=Nc5c(C)noc5C4)c3)ccc1O)C2 (stereo not given) next.
Reply | 14

Ask | Try COc1ccc(C2=Nc3c(C)noc3CC(c3cc(Cc4ccc(O)c(C5CC(c6ccc(OC)cc6)=Nc6c(C)noc6C5)c4)ccc3O)C2)cc1 (stereo not given) next.
Reply | 32

Ask | Try Cc1noc2c1N=C(c1cccs1)CC(c1cc(Cc3ccc(O)c(C4CC(c5cccs5)=Nc5c(C)noc5C4)c3)ccc1O)C2 (stereo not given) next.
Reply | 12

Ask | Try Cc1noc2c1N=C(c1ccccc1)CC(c1cc(Cc3ccc(O)c(C4CC(c5ccccc5)=Nc5c(C)noc5C4)c3)ccc1O)C2 (stereo not given) next.
Reply | 35

Ask | Try Cc1noc2c1N=C(c1ccc(Br)cc1)CC(c1cc(Cc3ccc(O)c(C4CC(c5ccc(Br)cc5)=Nc5c(C)noc5C4)c3)ccc1O)C2 (stereo not given) next.
Reply | 30

Ask | Try Cc1noc2c1N=C(c1ccc(Cl)cc1)CC(c1cc(Cc3ccc(O)c(C4CC(c5ccc(Cl)cc5)=Nc5c(C)noc5C4)c3)ccc1O)C2 (stereo not given) next.
Reply | 30

Ask | Try Cc1ccc(C2=Nc3c(C)noc3CC(c3cc(Cc4ccc(O)c(C5CC(c6ccc(C)cc6)=Nc6c(C)noc6C5)c4)ccc3O)C2)cc1 (stereo not given) next.
Reply | 40

Ask | Try Cc1noc2c1N=C(c1ccc([N+](=O)[O-])cc1)CC(c1cc(Cc3ccc(O)c(C4CC(c5ccc([N+](=O)[O-])cc5)=Nc5c(C)noc5C4)c3)ccc1O)C2 (stereo not given) next.
Reply | 28
